system: RARa homodimer (NR concentration 270 nM); test: PBM binding z-score (relative to random genomic background probes); higher = stronger binding; sequences stand for … in GC…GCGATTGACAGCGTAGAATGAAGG
EXPERIMENTAL_ENDPOINT: PBM binding z-score

- AGAATGAGGTTATTAAGATCAGGTAATTGCGGTC: 0.41
- TAGCCTATGTCAGATCGGGCCAGTATACGCTATA: -0.755
- AGAATGAGGTTATTAAGCTCAGGGAATTGCGGTC: -0.655

###

Listing: PBM binding z-score of selected sequences
tested on: PPARg:RXRa 90nM:30nM, anti-RXR (NR concentration 90 nM, RXRa partner concentration 30 nM); assay: PBM binding z-score (relative to random genomic background probes); higher = stronger binding; sequences stand for … in GC…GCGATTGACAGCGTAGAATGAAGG
EXPERIMENTAL_ENDPOINT: PBM binding z-score

- TGAATGAGGTTAAAGATCAGTGAACGTGGCGTCG: 6.78
- CTCGAAAGTTCGTGCTCAGGTGAGTATACCAAAC: 0.433
- ATATGTAGATTATCGGGTCATTCAGTTTGCGCAT: 1.31
- GCTGCTAGGTCAACTGATGGTCCGCTAAAGCTCG: 1.97
- CAAACTACGTCACCGGAAGGTCAAAGTCCGCATG: 1.15
- CCAAGTTGGTCAGGAGGTCACACACCGGATATGA: 2.97
- ATCTCTAGGTAAAAGTTCAGAGAATCCCGAGGAT: 9.43

###

tested on: LXRb:RXRa (NR concentration 270 nM, RXRa partner concentration 90 nM); test: PBM binding z-score (relative to random genomic background probes); higher = stronger binding; sequences stand for … in GC…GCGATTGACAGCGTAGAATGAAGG
// values below are reported PBM binding z-score
EXPERIMENTAL_ENDPOINT: PBM binding z-score

* TGAATGAGGTTAAAGTTCAGGGAACGTGGCGTCG | 3.68
* ATACCAAGGTGTTCGTGAGGTCGTTGATACTAAC | 1.3
* CCTATTAGTTGACCACAAGGGCAACCGAAGCTCG | 0.591
* ATCGAAAGCTCGTGAGGTGAGTATACAGAAAGGC | -0.546
* CCTAATGGGCCACGAAAGGTCATTGATTCAGTGA | 4.5
* CCTTAAGGGTCACTCCAGGTTATAGCATCGGAGT | 5.9
* CGAACGAGGGCATGAGTTGAGAGCAAATGCCGAT | 0.203
* CCGACTGGGGCAGAAAGGTTAGCATACCATCCGG | 0.0251
* CCGACTGGGGCAAAGTTACCATAACGCACAGCCA | -0.362
* TCTTGTAGATCAACAGCAGGTTAAGAAAGATCGA | 0.569
* AGAATGTGGTTATACGTAGATCAGGGAAGAAAGT | 0.318
* TCTGCTAGGTCAGTTGGTCAGCTATCGAGCTGCC | 0.193
* ATCTCTAGGTAACCAAGCTCAGTGAATGCCGAAC | -0.416
* GCTCGGAGGACGAGGTCAGAGCTTTGTCCGTAGA | 1.38
* TCAATTAGTTGATTAGGGCAACCGAAACAGCGGA | 0.445
* CCTACTGGGCCATCACGTCATTGATATCAACGTT | 0.0401
* GATACAGGATCAGCTAGAGGCCAGAGTATGGAAA | -0.727
* GCTAGTTGGTCAGTAAAAGGTCACTCACCGGTCG | 3.49
* GCTTGTAGAGCAAGGTTAAGAAAGACTAAGCTAA | 0.174
* AGAACGAGGGCACGCTGATTTGATAGCAGAGTAG | 0.172
* ACAGACAGGTGAGCGAAGGTAACTCAGCTGGACG | -0.645
* CCTACTGGGCCAAAAGTCATTGATTCCAATGCTC | 0.111
* TTACCAAGGTGAAGGTCGTTGAGCCCTCTGTAGA | 0.883
* TCATATAGGTAAACAGGTAAAAGTCCGTAAGTTA | 0.863
* CAAACTAGGTCACGAATGGTCAAAGTCGAATGAC | 3.46
* CCGACTGGGGCAAGGTTACCACAACGCACAGCCA | 0.671
* CCTAGAAGGCCAGGGTCACTCAAGCATTTCGCTT | 2.02
* TCATATAGGTAAAATGTGAAAGTCGGTGTGGTAA | 0.595
* GCAACGAGGGCAAAGTTGATAGCATCTGTCGACG | 0.805
* TCTAGCAGGCCAGAGGGTAACTCAAGAGGTACGG | -0.399
* CCAGACAGGAGAGAAGGTAACTCAGCCTCGATTA | 0.0989
* CCTACTTGGCCACGAAAGGTCATTGATTCAGTGA | 4.61
* CCTCGGAGGACAGACGGTCAGAGCTGTCCGCTTT | -1.1
* AATACAGGGTCATCGTAGGCCAGGGTACGCACAG | 4.52
* CCTAGTTCGTCAAGGTCACACACGCTATAGGTAC | 4.06
* CCTTACGGGTCGCTCCAGGTTATAGCATCGGAGT | 0.57
* GCTTACGGGTTAAAGGTTATAGCATGAATAGAAT | 4.17
* TCTGCTAGCTCAGTTGGTCAGCTAACGAGCTGCC | -1.04
* GCTAGCAGGCCATTTGGGTCACTCGATGACGGGC | -0.0448
* AGAATGAGTTTACCAAAGATCAGGGAAACGCTTG | -0.0367
* TCTAGCAGGCCAGAGGGTCACCCAAGAGGTACGG | 1.36

###

system: PXR:RXRa (NR concentration 270 nM, RXRa partner concentration 90 nM); assay: PBM binding z-score (relative to random genomic background probes); higher = stronger binding; sequences stand for … in GC…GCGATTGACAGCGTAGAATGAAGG
Each item that follows carries a reported PBM binding z-score.
EXPERIMENTAL_ENDPOINT: PBM binding z-score

• AGTCAAAGTTCATCTAGATAACGTAAGATATGCT = 5
• GCGACTGGCGCAAAGCAGGTTACCATAAGGTTGG = -0.34
• ACAGACAGGTGAGTGTAGGTAACTCAGCTGGACG = -0.121
• CCGAGTAGGTTATGGGGCATTCGGGCAACGGTGA = 0.00674
• AGCCAAAGTTCACTAGGTAACGTAAGATTCAGCT = 3.96
• ATCTCTAGGTAACCAAGTTCAATGAATGCCGAAC = 2.72
• CCTAGTTTGTCAAGGTCACACACGCTATAGGTAC = 4.71
• GCGACTGGGGGATCAGCAGGTTACCATAACTTAA = 1.15
• TTACCAAGGGGAAAGGTCGTTGATGCACGCCTTG = 2.44
• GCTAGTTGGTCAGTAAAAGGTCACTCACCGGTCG = 4.53
• CGTCCAAGGTCAGAGAGGACAGTGAATGCCGAGT = 3.22
• CAAACTAGGTCACAGAGGTCCAAGTCCGTGCGTA = 3.43
• TTACCTAGGTGAAGGTCGTTGATCCCTCTGTAGA = 1.16
• CAAACTAGGGCAAAGGTCAAAGTCGAGCCAACCA = 5.98
• TCGAGTAGGTTAGTTGGGGCATTCAGCCAACATA = -0.283
• TTACCAAGGTGAGCTGAGGTCGTTGACCCAACTC = 5.01
• ACTAGCAGGCCAAGATTGGGTCACTCAAACAAAG = 0.192
• CCTACTGGGCCAAAAAGATCATTGATGCCGATAA = -0.395
• TAATATAGGTAAAAGGTGAAAGTCGGTGTGGTAA = 1.8
• TCTATTAGTTGAAGGGAAACCGACGAGTCCGTTT = 0.508
• ATACCAAGGTGATCGTGAGGTCGTTGAGACTAAC = 2.93
• CTACCAAGGTGAACAAGGTCGCTGATTACTATTC = 1.7
• AGAATGAGGTTACCAAAAATCAGGGAAACGCTTG = 1.04
• GGAACGAGGGCAAAGTTGAAAGCATCTGTCGACG = 2.03
• GCTGATAGGTCAACTGATGGTCAGCTAAAGCTCG = 3
• CCTTACGGGTCACTCCAGGTTATAGTATCGGAGT = 4.94
• CCTACTGGGCCGCGAAAGGTCATTGATTCAGTGA = 5.13
• TCTTGTAAATCAGCAGGTTAAGAAAGCTGGCCAA = 0.477

###

tested on: PPARg DBDmut:RXRa IVT, anti-PPARg (DBD mutation: PPARg1 K132A/R137A, NR concentration 270 nM, RXRa partner concentration 90 nM); test: PBM binding z-score (relative to random genomic background probes); higher = stronger binding; sequences stand for … in GC…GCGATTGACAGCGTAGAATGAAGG
Measured PBM binding z-score by item
EXPERIMENTAL_ENDPOINT: PBM binding z-score

- CGAACTAGGTCATTGACAGGACAGTCAATAGTAA: 3.76
- CCTTTCGGGTCACGAGGTTATAGCACGACGAGCG: 3.53
- CCTCGGAGGACAGATGGTCAGAGCTGTCCGCTTT: -1
